- Tested on: HS 578T breast
- test name: NCI tumour cell line growth inhibition, 48 h
I'd appreciate it if you could supply TGI values for the items below.

molecule	TGI
O=[N+]([O-])/C=C/c1ccc(Cl)cc1[N+](=O)[O-]	> 100 µM
Cc1cc(-c2nc3c(F)cccc3s2)ccc1N	> 100 µM
COC(=O)c1c(O)ccc2c1c1c(n2Cc2cc(OC)cc(OC)c2)C(=O)c2ccccc2C1=O	45.9 µM
O=C1c2c(Br)sc(Br)c2[C@@H](O)[C@H]1O	63.5 µM
Cc1ccc2nc(NS(=O)(=O)c3cc(C)c(Cl)cc3S)[nH]c2c1	> 100 µM

Consider the following items and state reported TGI for each.
1. CC(C)(C)OC(=O)CCCCCNC(=O)CCCCCNC(=O)CCC(CN(CC(=O)OCc1ccccc1)CC(=O)OCc1ccccc1)N(CC(=O)OCc1ccccc1)CC(=O)OCc1ccccc1 (stereo not drawn)
2. COc1cccc(-c2nc3sccn3c2-c2ccnc(NCCCNS(=O)(=O)c3ccccc3)c2)c1
3. COc1cc2cc(Oc3cccc(NC(=O)Nc4cc(C(F)(F)F)cc(C(F)(F)F)c4)c3)c(C)nc2cc1OC
4. CN1CCC(C(O)(c2ccccc2)c2ccc(Br)cc2)CC1 (stereo not drawn)
5. COc1cc(C2S/C(=C/c3ccccc3)C(=O)N2c2cccc(NC(C)=O)c2)cc(OC)c1OC (stereo not drawn)
6. CC(C)OP(=O)(O)c1ncc(-c2ccc(C(F)(F)F)cc2)c(NC2CCCCCC2)n1
7. CSc1nc(=O)cnn1C
8. CC[C@H]1OC(=O)[C@H](C)[C@@H](O[C@H]2C[C@@](C)(OC)[C@@H](O)[C@H](C)O2)[C@H](C)[C@@H](O[C@@H]2O[C@H](C)C[C@H](N(C)C)[C@H]2O)[C@](C)(OC)C/C(C)=C2/O[C@@]1(C)C=C2C

1. > 100 µM
2. > 100 µM
3. 6.94 µM
4. > 100 µM
5. 60.7 µM
6. > 100 µM
7. > 100 µM
8. 3.62 µM

Consider the following items and state reported TGI for each.
1. COc1ccc(/C=C/C(=O)c2cc3c(N)c(C(=O)Nc4ccc(OC)cc4)sc3nc2C)cc1
2. NCCCN=c1ccc2c3c1c(O)c1c(O)ccc(=O)c1c3[nH]n2CCNCCO
3. CN(C)c1ccc(-c2ccc(-c3ccc(C(=N)N)cn3)o2)cc1
4. COc1cc2cc(C(=O)N3CC(CCl)c4ccc([N+](C)(C)Cc5ccccc5[N+](=O)[O-])cc43)[nH]c2c(OC)c1OC (stereo not drawn)

1: > 11.8 µM; 2: 4.8 µM; 3: 4.07 µM; 4: 11.7 µM

Consider the following items and state reported TGI for each.
1. O=CN1N=C(c2cccc(Nc3ccnc4cc(Cl)ccc34)c2)CC1c1ccc(Cl)cc1 (stereo not drawn)
2. Cc1ccc(S(=O)(=O)N2CCNCCN(S(=O)(=O)c3ccc(C)cc3)CCNCC2)cc1
3. COC(=O)c1c(O)ccc2c1c1cc3ccccc3c(O)c1n2CCc1ccc(OC)c(OC)c1
4. COC(=O)c1ccc2c(c1)CC1(C2)Cc2ccccc2C1=O (stereo not drawn)
5. Cc1ccc(S(=O)(=O)N2CCSCCSCCSCCN(S(=O)(=O)c3ccc(C)cc3)CC2)cc1
6. CN1CC[C@H](c2c(O)cc(O)c3c(=O)cc(-c4ccccc4Cl)oc23)[C@H](O)C1

["> 100 µM", "35.7 µM", "> 100 µM", "> 100 µM", "> 100 µM", "0.398 µM"]

Consider the following items and state reported TGI for each.
1. COc1cc2c3c(n(CCCNCCCNCCCN)c(=O)c2cc1OC)-c1cc2c(cc1C3=O)OCO2
2. O=C(NCCNCCNC(=O)c1cc(-c2ccccc2)nc2ccccc12)c1cc(-c2ccccc2)nc2ccccc12
3. Cc1cc(NS(=O)(=O)c2ccc(N=[N+]([O-])c3ccc(S(=O)(=O)Nc4cc(C)on4)cc3)cc2)no1
4. CN(C)c1ccc(C(O)C2=CC(=O)c3ccccc3C2=O)cc1 (stereo not drawn)
5. N#C/C(=C(/O)CCl)c1nc2ccccc2o1
6. OCC(O)C(O)C(O)C(O)c1nnc2c(-c3ccccc3)nc3ccccc3n12 (stereo not drawn)
7. O=c1cccc(Cl)[nH]1

1. > 100 µM
2. 6.86 µM
3. > 100 µM
4. > 100 µM
5. > 100 µM
6. > 100 µM
7. > 100 µM

Consider the following items and state reported TGI for each.
1. Nc1ccccc1C(=O)N=Nc1c(O)[nH]c2ccccc12
2. Cc1[nH]c(-c2ccccc2)c2nc(N(C)C)oc(=O)c12
3. COc1cc(-c2nn(-c3cccc(NC(=O)CCN4CCN(c5ccccc5)CC4)c3)cc2-c2ccncc2)ccc1Cl
4. CC(C)(O)c1cc2c(cc1C(C)(C)O)-c1ccccc1-2

1. 73.8 µM
2. > 100 µM
3. > 100 µM
4. > 100 µM

Consider the following items and state reported TGI for each.
1. NC(=O)[N+](=CC(=S)Nc1ccccc1Cl)C(N)=O
2. Cc1cc(S(N)(=O)=O)c(S/C(=N\NS(=O)(=O)c2ccccc2)c2ccc(Cl)cc2)cc1Cl
3. C=CCN1CCC(c2cc(C(=O)OCC)[nH]c2-c2cc(C)no2)C1=O (stereo not drawn)
4. CCOP(=O)(O)C(Nc1ccc(N=Nc2ccccc2)cc1)c1cccc(C(Nc2ccc(N=Nc3ccccc3)cc2)P(=O)(O)OCC)c1 (stereo not drawn)

1. > 100 µM
2. > 100 µM
3. > 100 µM
4. > 100 µM

----------
I'd appreciate it if you could supply TGI values for the items below.
- Test system: ACHN renal
- test name: NCI tumour cell line growth inhibition, 48 h

Example results:
compound	TGI
CS(=O)(=O)Nc1cc(-c2ccc3ncnc(Nc4cccc(Cl)c4)c3c2)cnc1Cl	46.6 µM
O=C(O)CSc1n[nH]c(-c2ccco2)n1	> 100 µM
Cc1ccc(S(=O)C(C)C(Cl)c2ccccc2)cc1 (stereo not drawn)	> 100 µM
COC(=O)c1ccc2c(c1)CC1(C2)Cc2ccccc2C1=O (stereo not drawn)	> 100 µM

Consider the following items and state reported TGI for each.
1. CCOC(=O)c1c[nH]c(C(=O)C=[N+]=[N-])c1C1CCN(CC)C1=S (stereo not drawn)
2. NC1=NCN(C2OC(CO)C(O)C2O)C(=O)N1 (stereo not drawn)
3. CCc1ccc2c(c1)N(CCO)C1=C(C(=O)OC1)C2c1cc(OC)c(OC)c(OC)c1 (stereo not drawn)
4. COc1ccc(-c2nc(Nc3ccccc3)sc2Cc2sc(Nc3ccccc3)nc2-c2ccc(OC)cc2)cc1
5. C=C1C(=O)O[C@H]2C1C[C@H](O)[C@@]1(C)OC1CC[C@@]1(C)O[C@H]21 (stereo partly drawn)

["> 100 µM", "106 µM", "> 50 µM", "> 100 µM", "34.2 µM"]

----------
- System: SW-620 colon
- test name: NCI tumour cell line growth inhibition, 48 h; in the data active = GI50 below about 0.43 µM; inactive = the rest
Pick one and only one: active, inactive

molecule	target system	assigned category
COc1ccc(C(O)c2cc3c(N)c(C(=O)Nc4cccc(Br)c4C)sc3nc2C)cc1 (stereo not drawn)	SW-620 colon	active

Please state the recorded outcome for this molecule: CCOc1ccc2cc(-c3nn(CC4CCNCC4)c4ncnc(N)c34)ccc2c1 inactive

Please state the recorded outcome for this molecule: COc1ccc(C2=Nn3c(nnc3-n3nc(C)cc3C)SC2)cc1 active

----------
- Tested on: NCI-H23 lung
- test name: NCI tumour cell line growth inhibition, 48 h; in the data active = GI50 below about 0.43 µM; inactive = the rest
Pick one and only one: True for active, False for inactive

See these solved cases before continuing.
compound	assigned category
COc1cc(-c2nn(-c3cccc(NC(=O)CCN4CCN(c5ccccc5)CC4)c3)cc2-c2ccncc2)ccc1Cl	False
COc1ccc(C2=Nn3c(nnc3-n3nc(C)cc3C)SC2)cc1	True
OCC(O)C(O)C(O)C(O)c1nnc2c(-c3ccccc3)nc3ccccc3n12 (centres undefined)	False

Please state the recorded outcome for this compound: COCC(C(=O)OC1C/C=C/C=C/C(=O)OC(C(C)C(O)C(C)CCC(OC(=O)C(C)N(C)C)C(C)C(OC(C)=O)C(C)/C=C/N(C)C=O)C/C=C/C(OC)CC(C)C/C=C(\C)C(OC)CCC(C)C(O)C1C)N(C)C (centres undefined) True

Please state the recorded outcome for this compound: N#[N+]c1ccc(Nc2ccccc2)cc1 False

Please state the recorded outcome for this compound: O=C1Nc2ccc3c(c2/C1=C\c1cc2c(cc1Br)OCO2)OCO3 False

Please state the recorded outcome for this compound: CCOC(=O)[C@@H]1CSC(CC)=C(C(=O)O)N1 False

Please state the recorded outcome for this compound: CC1(C)N=C(N)N=C(N)N1c1cccc(CCc2ccccc2)c1 False

Please state the recorded outcome for this compound: COc1ccc2c(c1OC)O/C(=C\c1ncc([N+](=O)[O-])n1C)C2=O False

----------
- Tested on: DU-145 prostate
- test name: NCI tumour cell line growth inhibition, 48 h
observable: TGI

Example results:
compound	TGI
COc1ccc2nc3cc(Cl)ccc3c(NCCCN3CCN(CCCNc4ccc5nnn6c7ccccc7c(=O)c4c56)CC3)c2c1	> 25 µM
Nc1ccccc1C#Cc1ccccc1C#Cc1cccs1	48 µM
Nc1ccccc1C(=O)N=Nc1c(O)[nH]c2ccccc12	> 100 µM
Cc1sc2nc3n(c(=O)c2c1C)N=CN(c1ccc(Cl)cc1)C3	> 100 µM
CC1OC(OC2C(O)C(O)C(O)C(O)C2O)C(N)CC1N=C(N)C(=O)O (stereo not given)	> 100 µM
CC1(C)C2CCC13C(=O)C1OC3(C2)C2C(=O)c3c(ccc4c3ccc3ccccc34)C(=O)C12 (stereo not given)	> 100 µM
Cc1ccc(S(=O)(=O)N/N=C2/CCC3(O)CC2(C)CCC2[C@H]3CC2(C)C)cc1 (stereo not given in full)	> 100 µM
COC(=O)/C=C\C(C#N)(C#N)N=Cc1ccc(OC)cc1	17 µM
COc1ccc(COCC[C@H](C)OC2OC(CO)C(O)C(O)C2O)cc1 (stereo not given in full)	> 100 µM

Now look at this entry.
// fetch TGI given entry CN(C)c1ccc(C(O)C2=CC(=O)c3ccccc3C2=O)cc1 (stereo not given) 6.27 µM
